# Test system: LOC_OS03G04050-cb001;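 also: purified Escherichia coli-expressed rice kinase domain construct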
# measurement_notes: thermal shift delta Tm vs DMSO control; higher = stronger stabilization (binding)
# reported_conditions: 12.5 µM; protein concentration 2 µM
Item-by-item account of thermal shift delta Tm
property_name: thermal shift delta Tm

INSERT INTO results (compound, result) VALUES
  ('Cc1ncc(CO)c(CO)c1O', '0.53 °C'),
  ('O=C(Nc1cccc(C(F)(F)F)c1)c1cccc2cc(Oc3cc(CO)ncn3)ccc12', '0.59 °C'),
  ('Cc1ccc(NC(=O)c2ccc(CN3CC[C@H](N(C)C)C3)c(C(F)(F)F)c2)cc1Nc1nccc(-c2cncnc2)n1', '0.29 °C'),
  ('COc1cc(-c2cc(-c3ccc(N4CCNCC4)cc3)cnc2C)cc(OC)c1OC', '0.41 °C'),
  ('Cn1cc(-c2ccc(F)c(C(F)(F)F)c2)nc1C1CCN(c2ncnc3[nH]ncc23)CC1', '0.47 °C'),
  ('CN(C)CCOc1ccc(-c2nc(-c3ccncc3)c(-c3ccc4c(c3)CC/C4=N\O)[nH]2)cc1', '0.13 °C'),
  ('COc1cc(C(=O)N2CCC(N3CCN(C)CC3)CC2)ccc1Nc1ncc2c(n1)N(C)c1ccccc1C(=O)N2C', '0.41 °C'),
  ('CN1CCN(Cc2ccc(-c3cnc4[nH]cc(-c5ccc6[nH]ccc6c5)c4c3)cc2)CC1', '0.85 °C'),
  ('COc1ccc(-c2ccc3ncc4c(c3c2)n(-c2ccc(N3CCNCC3)c(C(F)(F)F)c2)c(=O)n4C)cn1', '0.36 °C'),
  ('CN(C)CCCn1cc(C2=C(c3c[nH]c4ccccc34)C(=O)NC2=O)c2ccccc21', '0.65 °C'),
  ('O=C(NCc1ccccc1)c1csc(Nc2ccncn2)n1', '0.67 °C'),
  ('COc1cc(Nc2ncc(F)c(Nc3ccc4c(n3)NC(=O)C(C)(C)O4)n2)cc(OC)c1OC [R406 (free base)]', '0.5 °C'),
  ('COc1cc(Nc2ncc(F)c(Nc3ccc4c(n3)N(COP(=O)(O)O)C(=O)C(C)(C)O4)n2)cc(OC)c1OC [R788 (Fostamatinib) Disodium]', '0.33 °C'),
  ('Cc1cn(-c2cc(NC(=O)c3ccc(C)c(Nc4nccc(-c5cccnc5)n4)c3)cc(C(F)(F)F)c2)cn1', '0.37 °C'),
  ('CN1CCN(S(=O)(=O)c2ccc(-c3cnc(N)c(C(=O)Nc4cccnc4)n3)cc2)CC1', '0.29 °C'),
  ('N#Cc1c(NC(=O)c2cccc3ccccc23)sc2c1CCCC2', '0.41 °C'),
  ('N#Cc1ccc(-c2c(-c3ncn[nH]3)sc(N3CCOCC3)c2C#N)c(F)c1', '0.35 °C'),
  ('OC1CCC(Nc2ncc3nc(Nc4c(F)cc(F)cc4F)n([C@H]4CCOC4)c3n2)CC1 (some centres undefined)', '0.57 °C'),
  ('O=C(O)c1ccc2c3c1cccc3c(=O)n1c3ccccc3nc21', '0.18 °C'),
  ('CNS(=O)(=O)C[C@H]1CC[C@H](N(C)c2[nH]cnc3nccc2-3)CC1', '0.63 °C'),
  ('CC(C)c1c2cc(-c3ccnc(NC4CCC(NC5CCOCC5)CC4)n3)ccc2nn1C (centres undefined)', '0.41 °C'),
  ('C=CC(=O)N1CCC(Oc2cc3c(Nc4ccc(Cl)c(Cl)c4F)ncnc3cc2OC)CC1 [Poziotinib (HM781-36B)]', '0 °C'),
  ('COc1cc2nccc(Oc3ccc(NC(=O)C4(C(=O)Nc5ccc(F)cc5)CC4)cc3)c2cc1OC [Cabozantinib malate (XL184)]', '0.7 °C'),
  ('O=C1NC(=O)/C(=C/c2ccc3c(c2)OC(F)(F)O3)S1', '0.81 °C'),
  ('c1ccc(-c2[nH]ncc2-c2ccnc3ccccc23)nc1', '0.67 °C'),
  ('CC(C)(C)NC(=O)c1cncn1C1CCN(c2ccc(-c3nnc(C(F)(F)F)o3)cn2)CC1', '0.48 °C'),
  ('CC(C)(C)NS(=O)(=O)c1cncc(-c2cc(F)c3nc(N)nn3c2)c1', '0.64 °C'),
  ('COc1cc2ncnc(Nc3ccc(Oc4ccccc4)cc3C)c2cc1OC', '0.35 °C'),
  ('Cc1csc(-c2nnc(Nc3ccc(Oc4ncccc4-c4ccnc(N)n4)cc3)c3ccccc23)c1', '0.3 °C'),
  ('Cc1ccc(NC(=O)c2ccc(CN3CCN(C)CC3)cc2)cc1Nc1nccc(-c2cccnc2)n1 [Imatinib (STI571)]', '0.47 °C'),
  ('C=C[C@@](C)(/C=C/c1ccc(O)cc1)CCC=C(C)C', '0.71 °C'),
  ('COc1ccc([C@@H]2OC[C@H]3[C@@H]2CO[C@@H]3c2ccc(O[C@@H]3O[C@H](CO)[C@@H](O)[C@H](O)[C@H]3O)c(OC)c2)cc1OC', '0.35 °C'),
  ('FC(F)(F)c1ccc(/C=C/c2nc(COc3ccc(CCCCn4ccnn4)cc3)co2)cc1', '0.37 °C'),
  ('CN1CCC(COc2cnc(-c3cccc(Cn4nc(-c5cccc(C#N)c5)ccc4=O)c3)nc2)CC1', '0.23 °C');
